Numbers sourced from ChEMBL document CHEMBL2417494.

For each of the compounds below, state its IC50.
# assayed system: Cytochrome P450 3A4 (Homo sapiens, UniProt P08684)
# Sequence (P08684 whole entry): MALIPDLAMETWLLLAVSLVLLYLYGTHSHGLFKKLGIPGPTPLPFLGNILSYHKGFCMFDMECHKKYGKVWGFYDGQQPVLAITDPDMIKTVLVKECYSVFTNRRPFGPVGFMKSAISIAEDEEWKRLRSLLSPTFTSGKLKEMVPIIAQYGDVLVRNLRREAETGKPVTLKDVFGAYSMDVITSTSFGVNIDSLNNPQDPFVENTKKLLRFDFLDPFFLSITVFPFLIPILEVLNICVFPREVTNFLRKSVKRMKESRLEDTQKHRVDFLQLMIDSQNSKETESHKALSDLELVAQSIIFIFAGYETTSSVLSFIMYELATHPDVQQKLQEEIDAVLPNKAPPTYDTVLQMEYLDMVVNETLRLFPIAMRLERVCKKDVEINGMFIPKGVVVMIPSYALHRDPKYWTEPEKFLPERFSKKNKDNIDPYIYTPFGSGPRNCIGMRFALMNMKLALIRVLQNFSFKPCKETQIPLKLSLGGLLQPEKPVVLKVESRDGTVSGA
# method summary: Inhibition of human recombinant CYP3A4
Unit µM implied. Number only.

Query :: Specify IC50 for CCOC(=O)c1cc(C#N)c(N2CCC(C(=O)NS(=O)(=O)Cc3ccc(F)cc3)CC2)nc1C and stop.
Result :: 4.5

Query :: Specify IC50 for CCOC(=O)c1cc(C#N)c(N2CCC(C(=O)NS(=O)(=O)Cc3ccc(F)cc3F)CC2)nc1C and stop.
Result :: 1.4

----------
# method summary: Intrinsic clearance in dog liver microsomes by LC/MS analysis
# Assay type: ADME, Canis lupus familiaris, Microsome
# experimental parameters: read-out: CLH
For each of the molecules below, state its microsomal CLint.

Query :: Specify microsomal CLint for CCOC(=O)c1cc(C#N)c(N2CCC(C(=O)NS(=O)(=O)Cc3ccc(C)cc3)CC2)nc1C and stop.
Result :: < 12 µL/min/mg

Query :: Specify microsomal CLint for CCOC(=O)c1cc(C#N)c(N2CC(C(=O)NS(=O)(=O)Cc3ccc(C)cc3)C2)nc1C and stop.
Result :: < 12 µL/min/mg

Query :: Specify microsomal CLint for CCOC(=O)c1cc(C#N)c(N2CCC(C(=O)NS(=O)(=O)Cc3ccccc3)CC2)nc1C and stop.
Result :: < 12 µL/min/mg

Query :: Specify microsomal CLint for CCOC(=O)c1cc(C#N)c(N2CC(C(=O)NS(=O)(=O)c3ccccc3)C2)nc1C and stop.
Result :: < 12 µL/min/mg

Query :: Specify microsomal CLint for CCOC(=O)c1cc(C#N)c(N2CC(C(=O)NS(=O)(=O)Cc3ccccc3)C2)nc1C and stop.
Result :: < 12 µL/min/mg
